# System: transgenic fli-1: enhanced GFP zebrafish embryos
# experiment description: Zebrafish embryo assay: antiangiogenic effects
# Format: in vivo, zebrafish (Danio rerio)
# condition set: Danio rerio; 1 μM; zebrafish embryos; vs vehicle (0.05% DMSO); read-out: Anti-angiogenic phenotype
Exercise: state measured inhibition in vivo at 1 µM for each of the molecules provided.

Solved entries:
molecule	inhibition in vivo at 1 µM
CC(=O)Nc1ccc(NC(=O)/C(C)=C\CC23OC(C)(C)C4CC(C=C5C(=O)c6c(O)c7c(c(CC=C(C)C)c6OC542)OC(C)(CCC=C(C)C)C=C7)C3=O)cc1 (stereo not drawn) [Compound 35, N-(4-acetamidophenyl) gambogamide]	25 to 50%
CC(=O)Nc1ccc(OC(=O)/C(C)=C\CC23OC(C)(C)C4CC(C=C5C(=O)c6c(O)c7c(c(CC=C(C)C)c6OC542)OC(C)(CCC=C(C)C)C=C7)C3=O)cc1 (stereo not drawn) [Compound 4, 4-Acetamidephenyl gambogate]	25 to 50%

We next turn to a different molecule, shown below.
Input CC(C)=CCCC1(C)C=Cc2c(O)c3c(c(CC=C(C)C)c2O1)OC12C(=CC4CC1C(C)(C)OC2(C/C=C(/C)C(=O)Nc1nccs1)C4=O)C3=O (stereo not drawn) [Compound 32, Thiazol-2-gambogamide] , output reported inhibition in vivo at 1 µM. 25 to 50%

----------
Exercise: state measured IC50 for each of the compounds provided.
# Test system: K562
# experiment description: MTT assay, cell proliferation
# Type: cell-based
# condition set: Homo sapiens, 24 h, read-out: IC50, inhibition of cell proliferation
One number for each entry, in nM.

compound	numeric result
CC(C)=CCCC1(C)C=Cc2c(O)c3c(c(CC=C(C)C)c2O1)OC12C(=CC4CC1C(C)(C)OC2(C/C=C(/C)C(=O)n1cccn1)C4=O)C3=O (stereo not drawn)	530
CC(C)=CCCC1(C)C=Cc2c(O)c3c(c(CC=C(C)C)c2O1)OC12C(=CC4CC1C(C)(C)OC2(C/C=C(/C)C(=O)Oc1c(Br)ccc(F)c1F)C4=O)C3=O (stereo not drawn) [Compound 2, 6-Bromo-2,3-difluorophenyl gambogate]	16100
CC(=O)Nc1ccccc1OC(=O)/C(C)=C\CC12OC(C)(C)C3CC(C=C4C(=O)c5c(O)c6c(c(CC=C(C)C)c5OC431)OC(C)(CCC=C(C)C)C=C6)C2=O (stereo not drawn) [Compound 27, 2-Acetamidophenyl gambogate]	520
CC(=O)c1ccc(OC(=O)/C(C)=C\CC23OC(C)(C)C4CC(C=C5C(=O)c6c(O)c7c(c(CC=C(C)C)c6OC542)OC(C)(CCC=C(C)C)C=C7)C3=O)c([N+](=O)[O-])c1 (stereo not drawn) [Compound 5, 2-Nitro-4-ethanonephenyl gambogate]	2030
CC(C)=CCCC1(C)C=Cc2c(O)c3c(c(CC=C(C)C)c2O1)OC12C(=CC4CC1C(C)(C)OC2(C/C=C(/C)C(=O)Oc1cccc([N+](=O)[O-])c1)C4=O)C3=O (stereo not drawn) [Compound 8, 3-Nitrophenyl gambogate]	18000

Dear colleague, could you please provide IC50 for the compounds listed below?
1. CC(=O)Nc1ccc(NC(=O)/C(C)=C\CC23OC(C)(C)C4CC(C=C5C(=O)c6c(O)c7c(c(CC=C(C)C)c6OC542)OC(C)(CCC=C(C)C)C=C7)C3=O)cc1 (stereo not drawn) [Compound 35, N-(4-acetamidophenyl) gambogamide]
2. COc1ccc(OC(=O)/C(C)=C\CC23OC(C)(C)C4CC(C=C5C(=O)c6c(O)c7c(c(CC=C(C)C)c6OC542)OC(C)(CCC=C(C)C)C=C7)C3=O)cc1Br (stereo not drawn) [Compound 22, 2-Bromo-4-methoxyphenyl gambogate]
3. COc1ccc(OC(=O)/C(C)=C\CC23OC(C)(C)C4CC(C=C5C(=O)c6c(O)c7c(c(CC=C(C)C)c6OC542)OC(C)(CCC=C(C)C)C=C7)C3=O)cc1 (stereo not drawn) [Compound 13, 4-Methoxyphenyl gambogate]
4. CC(C)=CCCC1(C)C=Cc2c(O)c3c(c(CC=C(C)C)c2O1)OC12C(=CC4CC1C(C)(C)OC2(C/C=C(/C)C(=O)Oc1cccc(C#N)c1)C4=O)C3=O (stereo not drawn) [Compound 12, 3-Cyanophenyl gambogate]

1. 260
2. 36900
3. 8050
4. 1790

----------
# Test system: K562
# experiment description: MTT assay, cell proliferation
# Format: cell-based
# condition set: Homo sapiens, 24 h, read-out: IC50, inhibition of cell proliferation
Exercise: state measured IC50 for each of the molecules provided.

Solved entries:
molecule	IC50
CC(C)=CCCC1(C)C=Cc2c(O)c3c(c(CC=C(C)C)c2O1)OC12C(=CC4CC1C(C)(C)OC2(C/C=C(/C)C(=O)Nc1nccs1)C4=O)C3=O (stereo not drawn) [Compound 32, Thiazol-2-gambogamide]	0.4 µM
CC(C)=CCC[C@]1(C)C=Cc2c(O)c3c(c(CC=C(C)C)c2O1)O[C@]12C(=C[C@@H]4C[C@H]1C(C)(C)O[C@@]2(C/C=C(/C)C(=O)O)C4=O)C3=O	0.49 µM
CC(C)=CCCC1(C)C=Cc2c(O)c3c(c(CC=C(C)C)c2O1)OC12C(=CC4CC1C(C)(C)OC2(C/C=C(/C)C(=O)Oc1ccc(C(C)(C)CC(C)(C)C)cc1)C4=O)C3=O (stereo not drawn)	> 80 µM
CC(C)=CCCC1(C)C=Cc2c(O)c3c(c(CC=C(C)C)c2O1)OC12C(=CC4CC1C(C)(C)OC2(C/C=C(/C)C(=O)Oc1ccc(C(=O)CBr)cc1)C4=O)C3=O (stereo not drawn) [Compound 16, 4-(2-Bromoacetyl)phenyl gambogate]	3.46 µM
CC(C)=CCCC1(C)C=Cc2c(O)c3c(c(CC=C(C)C)c2O1)OC12C(=CC4CC1C(C)(C)OC2(C/C=C(/C)C(=O)Oc1ccccc1Br)C4=O)C3=O (stereo not drawn) [Compound 17, 2-Bromophenyl gambogate]	27 µM
CC(C)=CCC/C(C)=C/COC(=O)/C(C)=C\CC12OC(C)(C)C3CC(C=C4C(=O)c5c(O)c6c(c(CC=C(C)C)c5OC431)OC(C)(CCC=C(C)C)C=C6)C2=O (stereo not drawn) [Compound 10, Geraniol gambogate]	> 80 µM
C=CCc1ccc(OC(=O)/C(C)=C\CC23OC(C)(C)C4CC(C=C5C(=O)c6c(O)c7c(c(CC=C(C)C)c6OC542)OC(C)(CCC=C(C)C)C=C7)C3=O)c(OC)c1 (stereo not drawn) [Compound 3, 4-Allyl-2-methoxyphenyl gambogate]	8.18 µM
CC(=O)Nc1ccc(OC(=O)/C(C)=C\CC23OC(C)(C)C4CC(C=C5C(=O)c6c(O)c7c(c(CC=C(C)C)c6OC542)OC(C)(CCC=C(C)C)C=C7)C3=O)cc1 (stereo not drawn) [Compound 4, 4-Acetamidephenyl gambogate]	0.41 µM

We next turn to a different molecule, shown below.
Input CC(C)=CCCC1(C)C=Cc2c(O)c3c(c(CC=C(C)C)c2O1)OC12C(=CC4CC1C(C)(C)OC2(C/C=C(/C)C(=O)Oc1cccc(C)c1[N+](=O)[O-])C4=O)C3=O (stereo not drawn) [Compound 14, 3-Methyl-2-nitrophenyl gambogate] , output reported IC50. 22.6 µM

----------
# Tested on: zebrafish embryos
# experiment description: Zebrafish toxicity: mortality rate
# Format: in vivo, zebrafish (Danio rerio)
# condition set: 10 μM; zebrafish
quantity: Mortality rates (%)
Answers are plain numbers, in %.

Dear colleague, could you please provide Mortality rates for the compounds listed below?
1. CC(=O)Nc1ccc(NC(=O)/C(C)=C\CC23OC(C)(C)C4CC(C=C5C(=O)c6c(O)c7c(c(CC8OC8(C)C)c6OC542)OC(C)(CCC2OC2(C)C)C=C7)C3=O)cc1 (centres unmarked)
2. CC(=O)Nc1ccc(NC(=O)/C(C)=C\CC23OC(C)(C)C4CC(C=C5C(=O)c6c(O)c7c(c(CC=C(C)C)c6OC542)OC(C)(CCC=C(C)C)C=C7)C3=O)cc1 (centres unmarked) [Compound 35, N-(4-acetamidophenyl) gambogamide]
3. CC(C)=CCC[C@]1(C)C=Cc2c(O)c3c(c(CC=C(C)C)c2O1)O[C@]12C(=C[C@@H]4C[C@H]1C(C)(C)O[C@@]2(C/C=C(/C)C(=O)O)C4=O)C3=O
4. CC(=O)Nc1ccc(OC(=O)/C(C)=C\CC23OC(C)(C)C4CC(C=C5C(=O)c6c(O)c7c(c(CC=C(C)C)c6OC542)OC(C)(CCC=C(C)C)C=C7)C3=O)cc1 (centres unmarked) [Compound 4, 4-Acetamidephenyl gambogate]
5. CC(C)=CCCC1(C)C=Cc2c(O)c3c(c(CC=C(C)C)c2O1)OC12C(=CC4CC1C(C)(C)OC2(C/C=C(/C)C(=O)Nc1nccs1)C4=O)C3=O (centres unmarked) [Compound 32, Thiazol-2-gambogamide]

1. 16.7
2. 16.7
3. 100
4. 20
5. 16.7

----------
# System: HUVEC
# experiment description: MTT assay, cell proliferation
# Format: cell-based, Human
# condition set: Homo sapiens, 24 h, read-out: IC50, inhibition of cell proliferation
quantity: IC50 (µM)
Answers are plain numbers, in µM.

Dear colleague, could you please provide IC50 for the molecules listed below?
1. CC(=O)c1ccc(OC(=O)/C(C)=C\CC23OC(C)(C)C4CC(C=C5C(=O)c6c(O)c7c(c(CC=C(C)C)c6OC542)OC(C)(CCC=C(C)C)C=C7)C3=O)c([N+](=O)[O-])c1 (centres unmarked) [Compound 5, 2-Nitro-4-ethanonephenyl gambogate]
2. CC(C)=CCCC1(C)C=Cc2c(O)c3c(c(CC=C(C)C)c2O1)OC12C(=CC4CC1C(C)(C)OC2(C/C=C(/C)C(=O)Oc1ccc(Cl)cc1C=O)C4=O)C3=O (centres unmarked) [Compound 23, 4-Chloro-2-formylphenyl gambogate]
3. CC(C)=CCCC1(C)C=Cc2c(O)c3c(c(CC=C(C)C)c2O1)OC12C(=CC4CC1C(C)(C)OC2(C/C=C(/C)C(=O)Oc1cccc(C=O)c1)C4=O)C3=O (centres unmarked) [Compound 15, 3-Formylphenyl gambogate]
4. CC(C)=CCCC1(C)C=Cc2c(O)c3c(c(CC=C(C)C)c2O1)OC12C(=CC4CC1C(C)(C)OC2(C/C=C(/C)C(=O)Oc1ccccc1Br)C4=O)C3=O (centres unmarked) [Compound 17, 2-Bromophenyl gambogate]
5. CC(=O)Nc1ccc(NC(=O)/C(C)=C\CC23OC(C)(C)C4CC(C=C5C(=O)c6c(O)c7c(c(CC8OC8(C)C)c6OC542)OC(C)(CCC2OC2(C)C)C=C7)C3=O)cc1 (centres unmarked)

1. 4.39
2. 32
3. 13.6
4. 29.9
5. 2.45
